System: HCT-15
measurement type: GI50 (µM)
Enter your answer as a number in µM; do not include the unit.

Please review the following examples before continuing.
- compound: "Cc1ccc(S(=O)(=O)n2cc(C=O)c(-c3cn(S(=O)(=O)c4ccc(C)cc4)cc3-c3cn(S(=O)(=O)c4ccc(C)cc4)cc3C=O)c2)cc1"
  test system: "HCT-15"
  GI50, µM: 55.7
- compound: "CCN(CC)CCOc1ccc(C(=C2CCCCC2)c2ccc(OCCN(CC)CC)cc2)cc1"
  test system: "HCT-15"
  GI50, µM: 1.54
- compound: "CC(CN(C)C)/C(=N\\Nc1ccccc1)c1ccccc1 (stereo not drawn)"
  test system: "HCT-15"
  GI50, µM: 0.0955
- compound: "CN(C)Cc1cc(/N=N/c2cccc(Cl)c2)ccc1O"
  test system: "HCT-15"
  GI50, µM: 4.9
- compound: "O=C1/C(=C\\c2cccc(Oc3ccccc3)c2)S(=O)(=O)C(c2ccccc2)N1c1ccccc1Cl (stereo not drawn)"
  test system: "HCT-15"
  GI50, µM: 31.2
- compound: "O=C1C(c2c(O)[nH]c3ccc(Cl)cc23)=Nc2ccccc21"
  test system: "HCT-15"
  GI50, µM: 7.73
- compound: "O=C(/C=C/c1ccccc1O)c1cccc2ccccc12"
  test system: "HCT-15"
  GI50, µM: 23.7
- compound: "Cc1occc1C(=S)Nc1ccc(Cl)c(/C=N/OC(C)(C)C)c1"
  test system: "HCT-15"
  GI50, µM: 15
- compound: "Cc1cc(Cc2cc(C)c(NC(=O)C(=O)C3CCC4=C(SC5C=CC=CC5N4)C3=O)c(C(C)C)c2)cc(C(C)C)c1NC(=O)C(=O)C1CCC2=C(SC3C=CC=CC3N2)C1=O (stereo not drawn)"
  test system: "HCT-15"
  GI50, µM: 34.9
- compound: "O=C1c2cccc(O)c2C(=O)c2c(O)cc(CO)cc21 [ALOE-EMODIN]"
  test system: "HCT-15"
  GI50, µM: 28.1

Note: attention shifts to another entry.
query: Please give the documented GI50 of Nc1cccc(/C=C/C(=O)N2CCN(CCOC(c3ccccc3)c3ccccc3)CC2)c1
result: 16.3
